tested_on: PARP1 (Homo sapiens)
Sequence (P09874 whole entry): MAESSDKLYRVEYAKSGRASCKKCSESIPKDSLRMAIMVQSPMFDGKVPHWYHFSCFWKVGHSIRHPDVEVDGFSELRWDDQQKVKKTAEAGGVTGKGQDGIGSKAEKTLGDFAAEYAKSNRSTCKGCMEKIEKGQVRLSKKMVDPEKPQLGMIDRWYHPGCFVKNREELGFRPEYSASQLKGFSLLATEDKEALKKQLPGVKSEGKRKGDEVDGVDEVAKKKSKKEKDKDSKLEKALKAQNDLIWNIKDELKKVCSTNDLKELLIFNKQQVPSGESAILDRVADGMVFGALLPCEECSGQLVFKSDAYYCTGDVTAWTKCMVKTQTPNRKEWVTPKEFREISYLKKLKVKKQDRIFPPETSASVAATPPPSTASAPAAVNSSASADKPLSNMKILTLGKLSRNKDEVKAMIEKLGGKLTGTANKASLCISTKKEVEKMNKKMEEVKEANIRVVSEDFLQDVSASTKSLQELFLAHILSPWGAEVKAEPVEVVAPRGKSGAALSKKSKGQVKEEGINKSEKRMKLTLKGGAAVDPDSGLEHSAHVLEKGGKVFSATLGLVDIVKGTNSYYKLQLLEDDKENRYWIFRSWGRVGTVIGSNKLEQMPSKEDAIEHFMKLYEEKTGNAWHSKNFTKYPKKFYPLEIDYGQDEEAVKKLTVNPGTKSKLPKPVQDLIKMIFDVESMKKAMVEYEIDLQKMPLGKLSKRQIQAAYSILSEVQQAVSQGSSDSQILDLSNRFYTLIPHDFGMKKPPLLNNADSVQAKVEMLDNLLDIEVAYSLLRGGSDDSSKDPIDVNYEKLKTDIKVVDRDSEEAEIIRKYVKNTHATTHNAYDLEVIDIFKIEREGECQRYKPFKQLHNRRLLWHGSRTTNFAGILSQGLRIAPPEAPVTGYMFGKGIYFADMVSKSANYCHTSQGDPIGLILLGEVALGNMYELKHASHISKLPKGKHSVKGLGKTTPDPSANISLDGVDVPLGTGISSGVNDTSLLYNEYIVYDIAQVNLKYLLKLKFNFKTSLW
observable: IC50 (µM)

>  <compound>
O=C1NCC(c2ccccc2)C(O)c2ccccc21 (racemic) [compound 5]

>  <reported_value>
20.1

$$$$
>  <compound>
O=C1NCC(c2ccccn2)C(O)c2cc(Cl)c(Cl)cc21 (racemic) [compound 6]

>  <reported_value>
17.8

$$$$

====

Listing: pIC50 of selected compounds
tested_on: PARP16 (Homo sapiens)
Sequence (Q8N5Y8 1-322): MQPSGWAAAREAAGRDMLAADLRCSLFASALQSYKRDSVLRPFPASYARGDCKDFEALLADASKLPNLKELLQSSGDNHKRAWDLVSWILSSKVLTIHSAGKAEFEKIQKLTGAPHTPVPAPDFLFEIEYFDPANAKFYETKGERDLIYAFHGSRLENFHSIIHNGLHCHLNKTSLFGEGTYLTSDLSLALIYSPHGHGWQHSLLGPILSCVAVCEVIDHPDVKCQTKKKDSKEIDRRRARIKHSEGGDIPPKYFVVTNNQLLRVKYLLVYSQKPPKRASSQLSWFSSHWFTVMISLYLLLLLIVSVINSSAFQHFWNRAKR
experiment_summary: Modified PARP enzymatic assay with IRE-1 as substrate, PARP16
Type: biochemical
condition_notes: read-out: IC50 PARP16; dose response 1 nM to 1 mM
pIC50: −log10 of the molar value.

>  <compound>
O=C1NCC(c2ccccc2)C(O)c2ccccc21 (racemic)

>  <pIC50>
3.53

$$$$
>  <compound>
O=C1NCC(c2ccccn2)C(O)c2cc(Cl)c(Cl)cc21 (racemic)

>  <pIC50>
6.44

$$$$

====

tested_on: UniProt:Q9Y6F1
Sequence (Q9Y6F1 1-533): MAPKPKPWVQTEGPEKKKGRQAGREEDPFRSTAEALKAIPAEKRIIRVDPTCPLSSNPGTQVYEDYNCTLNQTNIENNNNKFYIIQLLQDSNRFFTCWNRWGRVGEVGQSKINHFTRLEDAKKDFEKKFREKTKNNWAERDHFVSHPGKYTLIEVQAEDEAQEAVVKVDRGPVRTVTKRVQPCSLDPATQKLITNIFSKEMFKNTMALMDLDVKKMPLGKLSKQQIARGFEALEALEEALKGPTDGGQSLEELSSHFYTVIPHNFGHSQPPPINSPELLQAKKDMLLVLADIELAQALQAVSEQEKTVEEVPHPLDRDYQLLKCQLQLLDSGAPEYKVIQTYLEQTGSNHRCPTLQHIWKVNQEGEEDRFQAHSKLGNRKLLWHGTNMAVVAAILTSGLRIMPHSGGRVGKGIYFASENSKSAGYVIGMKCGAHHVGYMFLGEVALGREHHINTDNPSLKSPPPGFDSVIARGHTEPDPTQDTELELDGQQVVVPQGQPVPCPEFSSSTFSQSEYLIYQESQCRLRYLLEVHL
experiment_summary: PARP enzymatic assay
Format: biochemical
condition_notes: read-out: IC50 PARP3; dose response 1 nM to 1 mM
Listing: IC50 of selected compounds
observable: IC50 (µM)

>  <compound>
O=C1NCC(c2ccccn2)C(O)c2cc(Cl)c(Cl)cc21 (racemic)

>  <observable>
IC50

>  <unit_text>
µM

>  <reported_value>
74.1

$$$$
>  <compound>
O=C1NCC(c2ccccc2)C(O)c2ccccc21 (racemic)

>  <observable>
IC50

>  <unit_text>
µM

>  <reported_value>
3.1

$$$$
